- assay.target: T1, Hera_RBD (Thermus thermophilus, UniProt O07897 424-510)
- T1 sequence: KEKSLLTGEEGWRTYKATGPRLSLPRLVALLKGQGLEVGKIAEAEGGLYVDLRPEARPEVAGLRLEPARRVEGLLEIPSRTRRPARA
- assay.method.text: fluorescence anisotropy; Anisotropy: 50 mM Tris/HCl pH 7.5, 150 mM NaCl, 5 mM MgCl2 (Fig 2), 25 C, 50 nM RNA; EMSA: same Tris/NaCl, 12% glycerol, 25 C; NMR: 25 mM Bis-Tris/HCl pH 6.0, 50 mM NaCl, 10% D2O, 37 C
- setup.conditions: protein: recombinant; label: 5'-fluorescein
readout: pKd
Answers are plain numbers, as −log10 of the molar value.

**Q:** Tell me its pKd given GGGC (ssRNA) [4mer] as the entry.
**A:** 4.96
